Target: T1, T cell receptor (TCR) Vγ9 (TRGV9) (human, UniProt Q99603 21-122); further: unit not given here
T1 chain (looked up): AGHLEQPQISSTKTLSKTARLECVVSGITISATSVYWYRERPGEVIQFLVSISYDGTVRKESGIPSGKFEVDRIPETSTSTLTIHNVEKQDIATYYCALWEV
Experiment: cell-based or functional assay
Provide the reported IL6, Luminex (supernatant) of each item.
Answer using only a numeral; do not append any unit.

I am curious: what IL6, Luminex (supernatant) value has been reported for VG9B191 (antibody, human IgG1, lambda, V domains shown) VH: EVQLVQSGGGLVKPGGSLRLSCAASGFTFSRYSMNWVRQAPGKGLEGVSSISSSSSYIYYADSVKGRFTISRDNAKNSLYLQMNSLRAEDTAVYYCARDGPTVNWDYYFDLWGRGTLVTVSS VL: QSVLTQPPSVSAAPGQKVTISCSGSSSNIGNNYVSWYQQLPGTAPKLLIYDNNKRPSGIPDRFSGSKSGTSATLGITGLQTGDEADYYCGTWDSSLSTSVVFGGGTKLTVLG ?
400

I am curious: what IL6, Luminex (supernatant) value has been reported for VG9B162 (antibody, human IgG1, lambda, V domains shown) VH: QVQLVESGAEVTKPGASVKVSCKASGYTFTGDYMHWVRQAPGQGLEWMGWINPNSGYTNYAQKFQGRVTMTRDTSISTAYMELSRLRSDDTAVYYCAREGDAFDVWGQGTMVTVSS VL: QLVLTQSSSASGSPGQSVTISCTGTSSDVGGYNYVSWYQQHPGKAPKLMIYEVSKRPSGVPDRFSGSKSGNTASLTVSGLQAEDEADYYCNSYAGSNNFEVFGGGTKLTVLG ?
54
